Item-by-item account of TGI
Test system: RXF 393 renal
Assay: NCI tumour cell line growth inhibition, 48 h

Check out these entries, answers already filled in.
FC(F)(F)c1ccc(-c2cnc(Br)nc2NC2CCCCCC2)cc1 = > 100 µM
CC(=O)Oc1cccc2c1C(=O)c1c(OC(C)=O)cc(C)cc1C2=O = > 100 µM
O=C(CCN1CCCC1)Nc1ccc2c(NCCCc3ccccc3)c3ccccc3nc2c1 = 2.2 µM
Fc1ccc(-c2ncn(C3CCNCC3)c2-c2ccnc(Oc3cccc(F)c3)n2)cc1 = > 13.3 µM
O=Nc1c(O)ccc2ccccc12 = 19.5 µM

For the next question, use this molecule.
stdin: Bench note: what TGI did COc1ccc(NC(=O)C(=O)C2NC(=S)NC2=O)c(OC)c1 (stereo unspecified) show?
stdout: > 100 µM

----------
System: COLO 205 colon
Test: NCI tumour cell line growth inhibition, 48 h; in the data active = GI50 below about 0.43 µM; inactive = the rest
Respond only with the outcome that fits, drawn from T for active, F for inactive

C[Se]C(=O)CC1=C2C=C(F)C=CC2/C(=C\c2ccc(S(C)=O)cc2)C1C (stereo not drawn) = F
CC#CC(=O)N1CCC[C@H]1c1nc(-c2ccc(C(=O)Nc3ccccn3)cc2)c2c(N)nccn12 = F
CN(C)c1ccc(/C=C/c2ccnc3ccccc23)cc1 = F
C[C@H]1[C@@H](OCC(CO[C@H]2O[C@@H]3O[C@@]4(C)CC[C@H]5[C@H](C)CC[C@@H]([C@H]2C)[C@@]35OO4)=NOCC(=O)O)OC2O[C@@]3(C)CC[C@H]4[C@H](C)CC[C@@H]1[C@@]24OO3 (stereo partly drawn) = T
CC[C@H](C)[C@H](NC(=O)C12C3C4C1C1C2C3C41NC(C)=O)C(=O)N(C)[C@H](C[C@@H](OC(C)=O)c1nc(C(=O)N[C@@H](Cc2ccccc2)C[C@H](C)C(=O)OC)cs1)C(C)C (stereo partly drawn) = T
COC(=O)CCC1=C(C)c2cc3[n-]c(cc4nc(cc5[n-]c(cc1n2)c(CCC(=O)OC)c5C)C=C4C)cc3C.[Cd+2] = F
NC(CSC(c1ccccc1)(c1ccccc1)c1ccc2ccccc2c1)C(=O)O (stereo not drawn) = T

Would you kindly look at the next entry?
stdin: Just curious, what result did COc1ccc(NC(=O)c2cc(OC)c(OC)c(OC)c2)cc1O get here?
stdout: F

----------
System: UACC-62 melanoma
Assay: NCI tumour cell line growth inhibition, 48 h
Measurement label: TGI

stdin: Bench note: what TGI did Cc1cc(C)c(C(=O)OC(c2ccccc2)C(c2ccccc2)N2CCOCC2)c(C)c1 (configuration not stated) show?
stdout: > 100 µM

stdin: Please give the result for CC(C)(C)OC(=O)N1CCC23CCCC2C(=O)CC=C13 (configuration not stated) too.
stdout: > 100 µM

stdin: Please give the result for COc1ccc(NC(=O)C(=O)C2NC(=S)NC2=O)c(OC)c1 (configuration not stated) too.
stdout: > 100 µM

stdin: Please give the result for C=CCn1c(=O)c(C)cn(/C(=C/C(=O)OCC)C(=O)OCC)c1=O too.
stdout: 34.4 µM

stdin: Please give the result for O=c1[nH]c(-c2ccc(C(F)(F)F)cc2)nc2c1CSCC2 too.
stdout: > 100 µM

stdin: Please give the result for COC1=C(OC)CCC(/C(C#N)=C/c2ccc(OC)c(OC)c2)=C1 too.
stdout: > 100 µM

stdin: Please give the result for CCCCCCCSCC(O)COC(c1ccccc1)(c1ccccc1)c1ccccc1 (configuration not stated) too.
stdout: > 100 µM

stdin: Please give the result for CCNCCNc1cc(-c2ccc(F)cc2)c(C#N)c2nc3ccccc3n12 too.
stdout: 3.95 µM

stdin: Please give the result for CC(=O)c1cccc(NC2C(N)C(NC(=O)N(C)C)(C(C)O)C(C)(O)C2(O)COC(=O)c2c(C)cccc2O)c1 (configuration not stated) too.
stdout: 0.119 µM

stdin: Please give the result for COc1ccc([C@H]2O[C@@H](CO)C[C@]2(O)c2ccc(OC)cc2)cc1 too.
stdout: > 100 µM

stdin: Please give the result for Cc1nc(C(N)=S)sc1C(=O)/C=C/c1cccc(O)c1 too.
stdout: > 100 µM

stdin: Please give the result for NC(=O)N(O)c1cccc(Br)c1 too.
stdout: > 100 µM

stdin: Please give the result for c1ccc2c3nnc(c2c1)SCCSCCSc1nnc(c2ccccc12)SCCSCCS3 too.
stdout: > 100 µM

stdin: Please give the result for COc1ccc(-c2ccc(-c3ccc(C(=N)N)cn3)s2)cc1Cl too.
stdout: 3.65 µM

stdin: Please give the result for COc1ccccc1/C=C\c1cc(OC)c(OC)c(OC)c1 too.
stdout: > 100 µM

stdin: Please give the result for Cc1ccc(NC(=O)C(=O)Cc2nc3ccccc3o2)c(C)c1 too.
stdout: > 100 µM

stdin: Please give the result for CC12ON=C(c3ccccc3)N1C=CN1C(c3ccccc3)=NOC12 (configuration not stated) too.
stdout: > 100 µM

stdin: Please give the result for COCN1C(=O)[C@@H]2CCCN2C(=O)c2cc([N+](=O)[O-])ccc21 too.
stdout: > 100 µM

stdin: Please give the result for CCOC(=O)C12CC1(C(=O)OCC)C1CCC2C1 (configuration not stated) too.
stdout: > 100 µM

stdin: Please give the result for CC(C)[Si]1(C(C)C)OCC2OC(n3ccc(=O)[nH]c3=O)C(O)(CO)C2O[Si](C(C)C)(C(C)C)O1 (configuration not stated) too.
stdout: 29.2 µM

stdin: Please give the result for CSC(=NCCN=C(NS(=O)(=O)c1ccc(Cl)cc1)SC)NS(=O)(=O)c1ccc(Cl)cc1 too.
stdout: > 100 µM

stdin: Please give the result for CN(O)C(=O)Cc1ccccc1 too.
stdout: > 100 µM
